All values here come from the supplement of paper PMC10126150.

Quick reference for switch fluorescence ratio among some sequences
system: ATP; assay: switch fluorescence ratio, 500 uM ATP over buffer (Cy3 cluster intensity, sum of 5 cycles each) (fold (ratio)); higher = stronger signal-on switching upon ATP binding; sequences stand for … in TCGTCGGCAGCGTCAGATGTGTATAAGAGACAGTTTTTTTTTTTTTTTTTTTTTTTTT…TC; conditions: aptamer strand: ATP DNA aptamer (quencher-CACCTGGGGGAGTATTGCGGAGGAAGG + anchor), 100 nM annealed; ATP concentration: 500 uM;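 note: ATP exposure 15 min at 22 °C before imaging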

{"Residue Codes": "CCGTTGGCCT", "switch fluorescence ratio": 1.04}
{"Residue Codes": "GAGGTAGAGG", "switch fluorescence ratio": 0.986}
{"Residue Codes": "TGTCCGGTGG", "switch fluorescence ratio": 1.01}
{"Residue Codes": "TTATTGGTTT", "switch fluorescence ratio": 1.05}
{"Residue Codes": "TCGGTGCTGG", "switch fluorescence ratio": 0.977}
{"Residue Codes": "AGAGGGCGGG", "switch fluorescence ratio": 0.98}
{"Residue Codes": "TTATTAAGGG", "switch fluorescence ratio": 0.98}
{"Residue Codes": "TCGGGGATAG", "switch fluorescence ratio": 0.979}
{"Residue Codes": "CAGAGTCGGG", "switch fluorescence ratio": 0.996}
{"Residue Codes": "TTATGTTTTT", "switch fluorescence ratio": 1.01}
{"Residue Codes": "TTTAGAGGGT", "switch fluorescence ratio": 0.988}
{"Residue Codes": "ATGTGCTTGG", "switch fluorescence ratio": 1.02}
{"Residue Codes": "TAGGAATACG", "switch fluorescence ratio": 1.24}
{"Residue Codes": "TGGAGTTTTT", "switch fluorescence ratio": 0.985}
{"Residue Codes": "AACAGTGAGC", "switch fluorescence ratio": 1.04}
{"Residue Codes": "GGGGAAATTG", "switch fluorescence ratio": 0.983}
{"Residue Codes": "ATAAAGGGGA", "switch fluorescence ratio": 0.984}
{"Residue Codes": "TGAGCGGTTG", "switch fluorescence ratio": 1}
{"Residue Codes": "TTTTCAATTG", "switch fluorescence ratio": 1.01}
{"Residue Codes": "TGCATGTCTC", "switch fluorescence ratio": 1.43}
{"Residue Codes": "TTATTTTGTA", "switch fluorescence ratio": 1.03}
{"Residue Codes": "AGGTTGAGAG", "switch fluorescence ratio": 0.951}
{"Residue Codes": "AGGTTGTTAG", "switch fluorescence ratio": 1.01}
{"Residue Codes": "CGTGAATCTG", "switch fluorescence ratio": 0.967}
{"Residue Codes": "ACTGCCGGTG", "switch fluorescence ratio": 1.25}
{"Residue Codes": "AGGTTACGAG", "switch fluorescence ratio": 1}
{"Residue Codes": "CGGGTTAGTT", "switch fluorescence ratio": 1}
{"Residue Codes": "CGGATGGGTG", "switch fluorescence ratio": 0.996}
{"Residue Codes": "ATGAGCTATT", "switch fluorescence ratio": 1.03}
{"Residue Codes": "TCGGAGCTTC", "switch fluorescence ratio": 4.06}
{"Residue Codes": "AAAGGAAGGT", "switch fluorescence ratio": 1.01}
{"Residue Codes": "GGGGATCCAT", "switch fluorescence ratio": 1.02}

###

Quick reference for switch fluorescence ratio among some sequences
tested on: ATP; assay: switch fluorescence ratio, 500 uM ATP over buffer (Cy3 cluster intensity, sum of 5 cycles each) (fold (ratio)); higher = stronger signal-on switching upon ATP binding; sequences stand for … in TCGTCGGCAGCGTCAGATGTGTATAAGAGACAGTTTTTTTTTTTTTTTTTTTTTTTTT…TC; settings: aptamer strand: ATP DNA aptamer (quencher-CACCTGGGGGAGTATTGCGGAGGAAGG + anchor), 100 nM annealed; ATP concentration: 500 uM;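 note: ATP exposure 15 min at 22 °C before imaging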

{"Residue Codes": "TGCACGGCTT", "switch fluorescence ratio": 1.13}
{"Residue Codes": "TTGTGGTAAG", "switch fluorescence ratio": 0.992}
{"Residue Codes": "GGAGAGTCCG", "switch fluorescence ratio": 1.03}
{"Residue Codes": "GCCCGTATGG", "switch fluorescence ratio": 1}
{"Residue Codes": "ATAGGATTTG", "switch fluorescence ratio": 1.03}
{"Residue Codes": "TGAAGCTGCC", "switch fluorescence ratio": 1.28}
{"Residue Codes": "TTTTAAATTT", "switch fluorescence ratio": 1.01}
{"Residue Codes": "TGAGGATTTG", "switch fluorescence ratio": 1.02}
{"Residue Codes": "GTGAGAGCGG", "switch fluorescence ratio": 0.963}
{"Residue Codes": "GATTACGGGA", "switch fluorescence ratio": 1.05}
{"Residue Codes": "TTTGTTACGT", "switch fluorescence ratio": 1.04}
{"Residue Codes": "ATGAATAATG", "switch fluorescence ratio": 1.01}
{"Residue Codes": "TTAGTTAAAG", "switch fluorescence ratio": 1}
{"Residue Codes": "GTCAGTGGGG", "switch fluorescence ratio": 1.02}
